system: A427 cells; test: Cell proliferation assay (Cell Titer-Glo) in A427 cells; type: cell-based; details: Homo sapiens, A-427, typically 72 h
Kindly state IC50 for each of the entries shown.

In: Recall and state the measured IC50 for C=CCn1c(=O)c2cnc(Nc3ccc4c(c3)CN(C(=O)CO)CC4(C)C)nc2n1-c1cccc(C(C)(C)O)n1 [Example 1.6] .
Out: 277 nM

In: Recall and state the measured IC50 for C=CCn1c(=O)c2cnc(Nc3ccc4c(c3)CN(C(=O)CO)CC4)nc2n1-c1cccc(C(C)(C)O)n1 [Example 1.2] .
Out: 269 nM

In: Recall and state the measured IC50 for C=CCn1c(=O)c2cnc(Nc3ccc4c(c3)CNCC4)nc2n1-c1cccc(C(C)(C)O)n1 [Example 1.1] .
Out: 64 nM

In: Recall and state the measured IC50 for C=CCn1c(=O)c2cnc(Nc3ccc4c(c3)CN(C(=O)C(C)(C)O)CC4(C)C)nc2n1-c1cccc(C(C)(C)O)n1 [Example 1.3] .
Out: 483 nM

Cited source for all entries: patent US11299493B2
